target: human Orexin 1 receptor (Homo sapiens); construct: stably expressing the full-length human Orexin 1 receptor; expressed in transfected cells; host or cells: CHO-K1 (CHO-K1/hOX1), co-expressing aequorin; test: Assay A: In vitro testing of OX1R potency: OX1R IP1 (HTRF, CHO-K1/hOX1 cells, Orexin A as agonist); format: cell-based; settings: OX1R Kb at 50 nM Orexin A
Grouping key: OX2R Kb/OX1R Kb. Bins: low-valued = under 200, mid-valued = from 200 up to 500, high-valued = 500 and over

Please report the category associated with `CCN(C(=O)c1ccccc1-c1ncccn1)[C@@H](C)COc1ccc(Br)cn1` , nothing else. mid-valued

Please report the category associated with `CCN(C(=O)c1cc(F)ccc1-c1ncccn1)[C@@H](C)COc1ccc(Br)cn1` , nothing else. mid-valued

Please report the category associated with `CCN(C(=O)c1cc(C)ccc1-c1ncccn1)[C@@H](C)COc1ccc(C(F)(F)F)cn1` , nothing else. high-valued

Please report the category associated with `CCN(C(=O)c1ccccc1-n1nccn1)[C@@H](C)COc1ncc(C(F)(F)F)cc1F` , nothing else. mid-valued

Please report the category associated with `CCN(C(=O)c1ccccc1-n1nccn1)[C@@H](C)COc1ccc(C(F)(F)F)cn1` , nothing else. low-valued

Please report the category associated with `CCN(C(=O)c1c(F)cccc1-n1nccn1)[C@@H](C)COc1ccc(C(F)(F)F)cn1` , nothing else. mid-valued

Please report the category associated with `CCN(C(=O)c1cc(C#N)ccc1-n1nccn1)[C@@H](C)COc1ccc(C(F)(F)F)cn1` , nothing else. low-valued

Please report the category associated with `CCN(C(=O)c1ccccc1-c1ncccn1)[C@@H](C)COc1ccc(C(F)(F)F)cn1` , nothing else. high-valued

====

Target: human Orexin 1 receptor (Homo sapiens, UniProt O43613)
Construct: stably expressing the full-length human Orexin 1 receptor; expressed in transfected cells; host or cells: CHO-K1 (CHO-K1/hOX1), co-expressing aequorin
Sequence (O43613 1-425): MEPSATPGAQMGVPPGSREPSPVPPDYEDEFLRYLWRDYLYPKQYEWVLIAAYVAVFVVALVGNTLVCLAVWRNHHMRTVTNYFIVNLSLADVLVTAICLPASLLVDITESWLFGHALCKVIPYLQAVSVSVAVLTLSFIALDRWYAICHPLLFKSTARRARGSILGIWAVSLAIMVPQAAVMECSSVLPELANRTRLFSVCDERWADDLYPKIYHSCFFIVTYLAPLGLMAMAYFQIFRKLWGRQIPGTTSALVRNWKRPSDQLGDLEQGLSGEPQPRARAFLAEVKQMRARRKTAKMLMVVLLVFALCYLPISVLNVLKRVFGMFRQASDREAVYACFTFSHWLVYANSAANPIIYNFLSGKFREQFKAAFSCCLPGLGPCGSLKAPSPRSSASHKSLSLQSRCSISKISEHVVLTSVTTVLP
Assay: Assay A: In vitro testing of OX1R potency: OX1R IP1 (HTRF, CHO-K1/hOX1 cells, Orexin A as agonist)
Type: cell-based
Details: Orexin A 0.5 nM; read-out: OX1R Kb (Orexin A concentration used)
parameter measured: Kb (nM)
Value expressed in nM; do not type the unit.

Example compounds with recorded Kb:
[
  {
    "compound": "CCN(C(=O)c1c(F)cccc1-c1ncccn1)[C@@H](C)COc1ccc(C(F)(F)F)cn1 [Example 116]",
    "Kb [nM]": 0.34
  },
  {
    "compound": "CCN(C(=O)c1ccc(F)cc1-n1nccn1)[C@@H](C)COc1ncc(C(F)(F)F)cc1F [Example 48]",
    "Kb [nM]": 1.31
  },
  {
    "compound": "CCN(C(=O)c1cccc(F)c1-n1nccn1)[C@@H](C)COc1ccc(Br)cn1 [Example 111]",
    "Kb [nM]": 0.4
  }
]

Check human Orexin 1 receptor (Homo sapiens, UniProt O43613) data and give Kb for CCN(C(=O)c1cc(C#N)ccc1-n1nccn1)[C@@H](C)COc1ccc(C(F)(F)F)cn1 [Example 95] . 0.52

====

Molecular target: human Orexin 1 receptor (Homo sapiens)
Construct: stably expressing the full-length human Orexin 1 receptor; expressed in transfected cells; host or cells: CHO-K1 (CHO-K1/hOX1), co-expressing aequorin
Sequence (O43613 1-425): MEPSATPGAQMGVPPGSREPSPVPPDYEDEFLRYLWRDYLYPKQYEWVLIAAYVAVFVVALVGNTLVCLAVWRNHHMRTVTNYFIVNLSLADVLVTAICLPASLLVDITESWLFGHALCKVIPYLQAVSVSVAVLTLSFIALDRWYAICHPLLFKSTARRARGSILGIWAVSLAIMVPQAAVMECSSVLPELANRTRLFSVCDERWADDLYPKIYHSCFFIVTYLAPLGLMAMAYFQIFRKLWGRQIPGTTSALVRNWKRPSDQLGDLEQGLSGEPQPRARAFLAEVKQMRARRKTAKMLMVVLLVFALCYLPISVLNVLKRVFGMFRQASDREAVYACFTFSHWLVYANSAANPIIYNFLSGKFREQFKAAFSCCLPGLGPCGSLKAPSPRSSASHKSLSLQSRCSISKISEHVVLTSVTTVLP
Test: Assay A: In vitro testing of OX1R potency: OX1R IP1 (HTRF, CHO-K1/hOX1 cells, Orexin A as agonist)
Format: cell-based
Details: OX1R Kb at 50 nM Orexin A
# OX2R Kb/OX1R Kb listing for each entry below
Number, no unit, nothing else.

[
  {
    "test smiles": "CCN(C(=O)c1ccc(F)cc1-c1ncccn1)[C@@H](C)COc1ccc(C(F)(F)F)cn1",
    "system name": "human Orexin 1 receptor (Homo sapiens)",
    "parameter measured": "OX2R Kb/OX1R Kb",
    "reported result": 409
  },
  {
    "test smiles": "CCN(C(=O)c1c(F)cccc1-c1ncccn1)[C@@H](C)COc1ccc(C(F)(F)F)cn1",
    "system name": "human Orexin 1 receptor (Homo sapiens)",
    "parameter measured": "OX2R Kb/OX1R Kb",
    "reported result": 205
  },
  {
    "test smiles": "CCN(C(=O)c1cc(F)ccc1-n1nccn1)[C@@H](C)COc1ccc(Cl)cn1",
    "system name": "human Orexin 1 receptor (Homo sapiens)",
    "parameter measured": "OX2R Kb/OX1R Kb",
    "reported result": 81
  },
  {
    "test smiles": "CCN(C(=O)c1ccc(F)c(F)c1-n1nccn1)[C@@H](C)COc1ccc(C(F)(F)F)cn1",
    "system name": "human Orexin 1 receptor (Homo sapiens)",
    "parameter measured": "OX2R Kb/OX1R Kb",
    "reported result": 340
  }
]

Please give measured OX2R Kb/OX1R Kb of the following entry: `CCN(C(=O)c1ccccc1-c1cncc(C#N)c1)[C@@H](C)COc1ccc(C(F)(F)F)cn1` 125

Please give measured OX2R Kb/OX1R Kb of the following entry: `CCN(C(=O)c1cccc(C)c1-c1nnc(C)o1)[C@@H](C)COc1ncc(C(F)(F)F)cc1F` 705

Please give measured OX2R Kb/OX1R Kb of the following entry: `CCN(C(=O)c1cccc(C)c1-c1nnc(C)o1)[C@@H](C)COc1ccc(C(F)(F)F)cn1` 292

Please give measured OX2R Kb/OX1R Kb of the following entry: `CCN(C(=O)c1cc(F)cc(F)c1-n1nccn1)[C@@H](C)COc1ccc(Cl)cn1` 143

Please give measured OX2R Kb/OX1R Kb of the following entry: `CCN(C(=O)c1cc(F)ccc1-c1ncccn1)[C@@H](C)COc1ccc(C(F)(F)F)cn1` 500

Please give measured OX2R Kb/OX1R Kb of the following entry: `CCN(C(=O)c1c(-n2nccn2)ccc(C)c1F)[C@@H](C)COc1ncc(C(F)(F)F)cc1F` 377

Please give measured OX2R Kb/OX1R Kb of the following entry: `CCN(C(=O)c1cccc(F)c1-n1nccn1)[C@@H](C)COc1ncc(Br)cc1F` 192

Please give measured OX2R Kb/OX1R Kb of the following entry: `CCN(C(=O)c1cc(OC)ccc1-n1nccn1)[C@@H](C)COc1ccc(Cl)cn1` 236

Please give measured OX2R Kb/OX1R Kb of the following entry: `CCN(C(=O)c1ccccc1-c1noc(C)n1)[C@@H](C)COc1ccc(C(F)(F)F)cn1` 200

Please give measured OX2R Kb/OX1R Kb of the following entry: `CCN(C(=O)c1cccc(F)c1-n1nccn1)[C@@H](C)COc1ncc(C(F)(F)F)cc1Cl` 312

Please give measured OX2R Kb/OX1R Kb of the following entry: `CCN(C(=O)c1ccc(OC)cc1-n1nccn1)[C@@H](C)COc1ncc(C(F)(F)F)cc1F` 900
